target: SARS-CoV-2 spike protein (full length, wild type) (SARS-CoV-2, UniProt P0DTC2 14-1273); test: cell-based or functional assay
Reported EC50 (pM) values are given for each entry in this list.

Worked examples, 2 binders total:
SARS2-1C12_f3 (antibody, V domains shown, also called antibody number 1) VH: QVQLVQSGAEVKKPGASVKVSCKASGYTFTSYDITWVRQATGQGLEWMGWMSPNSGNTGYTQKFQGRVTMTRNTSISTAYMELSSLRSEDTAVYYCARFGYGSGALDYYYYGLDVWGQGTTVTVSS VL: EIVLTQSPGTLSLSPGERATLSCRASQSVRSSHLAWYQQKPGQAPRLLIYGASSRATGIPDRFSGSGSGTDFTLTISRLEPEDFAVYYCQQYNNSPITFGQGTRLEIK; 75 pM
11G2_f3 (antibody, V domains shown, also called SARS2-11G2_S; antibody number 13) VH: QVQLVQSGAEVKKPGASVKVSCKASGYTFTSYDITWVRQATGQGLEWMGWMSPNSGNTGYAQKFQGRVSMTRNTSISTAYMELSSLRSEDTAVYYCARFGYGSGALDYYYYGLDVWGQGTTVTVSS VL: EIVLTQSPGTLSLSPGERATLSCRASQSVRNSHLAWYQQKPGQAPRLLIYGASSRATGIPDRFSGSGSGTDFTLTISRLEPEDFAVYYCQQFGSSPITFGQGTRLEIK; 74 pM

Then there is this binder:
Ask | Value lookup for EC50 (pM); key = SARS2-19C4_f3 (antibody, V domains shown, also called antibody number 20; family A) VH: EVQLVETGGGLIQPGGSLRLSCAASGITVSSNYMNWVRQAPGKGLEWVSVIYSGGSTFYADSVKGRFTISRDNSKNTLYLQMNSLRAEDTAVYYCARDLEVAGGFDIWGQGTMVTVSL VL: DIQLTQSPSFLSASVGDRVTITCRASQGISSYLAWYQQKPGKAPKVLIYAASTLQSGVPSRFSGSGSGTKFTLTISSLQPEDFATYYCQQLNSFPPSTFGQGTKLEIK
Reply | 492 pM
